- System: Human immunodeficiency virus 1
- assay.text: microbe, parasite or virus in culture
- measurement.conditions: Human immunodeficiency virus 1, subtype A/G CRF02_AG clone 278
assay.metric: IC50

Entry NCC(NC(=O)c1ccc(-c2cc(F)c(Cl)c(F)c2)[nH]1)c1ncc(CO)s1 (stereo in doubt) , tested on Human immunodeficiency virus 1, has a reported IC50 of 500 nM

###

- System: Human immunodeficiency virus 1
- assay.text: Antiviral activity against ENV pseudotyped CCR5-tropic HIV1 subtype C 6936-2, clone 21
- Assay type: functional
- measurement.conditions: Human immunodeficiency virus 1, subtype C 6936-2, clone 21
assay.metric: IC50 (nM)
Answers are plain numbers, in nM.

Entry NCC(NC(=O)c1ccc(-c2cc(F)c(Cl)c(F)c2)[nH]1)c1ncc(CO)s1 (stereo in doubt) , IC50 reported as 310

###

- System: TZM
- assay.text: Cytotoxicity against human TZM-bl cells incubated for 3 days by XTT assay
- Type: cell-based
- measurement.conditions: tzm, 72 h
Consider the following compounds; for each one, report its CC50.
Give bare numbers, in µM.

Below, each entry is followed by its recorded CC50 result.
{"compound": "CNCC(NC(=O)c1ccc(-c2ccc(C)c(F)c2)[nH]1)c1ncc(CO)s1 (stereo in doubt; 87B)", "experimental.target": "TZM", "assay.metric": "CC50", "test.result": 27.4}
{"compound": "CNCC(NC(=O)c1ccc(-c2ccc(Cl)c(F)c2)[nH]1)c1ncc(CO)s1 (stereo in doubt; 86B)", "experimental.target": "TZM", "assay.metric": "CC50", "test.result": 17.3}
{"compound": "COc1cc(C(=O)NC(CN)c2nc(C)c(CO)s2)[nH]c1-c1ccc(Cl)cc1 (stereo in doubt; 29B)", "experimental.target": "TZM", "assay.metric": "CC50", "test.result": 16.4}
{"compound": "NCC(NC(=O)c1ccc(-c2ccc(Cl)c(F)c2)[nH]1)c1ncc(CO)s1 (stereo in doubt; 82B)", "experimental.target": "TZM", "assay.metric": "CC50", "test.result": 33}
{"compound": "Cc1cc(-c2ccc(C(=O)NC(CCN)c3nc(C)c(CO)s3)[nH]2)ccc1F (stereo in doubt; 63B)", "experimental.target": "TZM", "assay.metric": "CC50", "test.result": 38.2}
{"compound": "NCC(NC(=O)c1ccc(-c2ccc(Cl)cc2)[nH]1)c1ncc(CO)s1 (stereo in doubt; 81B)", "experimental.target": "TZM", "assay.metric": "CC50", "test.result": 37.1}
{"compound": "Cc1nc(C(CN)NC(=O)c2ccc(-c3ccc(Cl)cc3)n2C)sc1CO (stereo in doubt; 26B)", "experimental.target": "TZM", "assay.metric": "CC50", "test.result": 35.8}
{"compound": "CNCCC(NC(=O)c1ccc(-c2ccc(F)c(C)c2)[nH]1)c1nc(C)c(CO)s1 (stereo in doubt; 66B)", "experimental.target": "TZM", "assay.metric": "CC50", "test.result": 36.4}
{"compound": "Cc1cc(-c2ccc(C(=O)NC(CCN(C)C)c3nc(C)c(CO)s3)[nH]2)ccc1F (stereo in doubt; 69B)", "experimental.target": "TZM", "assay.metric": "CC50", "test.result": 23.5}
{"compound": "NCC(NC(=O)c1ccc(-c2cc(F)c(Cl)c(F)c2)[nH]1)c1ncc(CO)s1 (stereo in doubt; 84B)", "experimental.target": "TZM", "assay.metric": "CC50", "test.result": 20.6}

Lab note: each compound below needs its CC50 filled in.
1. Cc1nc(C(CCN(C)C)NC(=O)c2ccc(-c3ccc(F)c(Cl)c3)[nH]2)sc1CO (stereo in doubt; 68B)
2. Cc1nc(C(CCN)NC(=O)c2ccc(-c3ccc(F)c(Cl)c3)[nH]2)sc1CO (stereo in doubt; 62B)

1: 22; 2: 24.5

Lab note: each compound below needs its CC50 filled in.
1. CNCC(NC(=O)c1ccc(-c2ccc(Cl)cc2)[nH]1)c1nc(C)c(CO)s1 (stereo in doubt; 41B)
2. Cc1nc(C(CN)NC(=O)c2ccc(-c3ccc(F)c(F)c3)[nH]2)sc1CO (stereo in doubt; 25B)

1. 31.7
2. 58.6

###

Consider the following molecules; for each one, report its solubility kinetic at 2 h.
- assay.text: Aqueous solubility of the compound at 1 to 100 uM in PBS at pH 7.4 after 2 hrs by turbidimetric analysis
- Format: physicochemical
Give bare numbers, in µM.

{"molecule": "NCC(NC(=O)c1ccc(-c2cc(F)c(Cl)c(F)c2)[nH]1)c1ncc(CO)s1 (stereo in doubt)", "solubility kinetic at 2 h [µM]": 65}

Here is the next item to consider.
Entry Cc1nc(C(NC(=O)c2ccc(-c3ccc(Cl)cc3)[nH]2)C2CCCCN2)sc1CO (centres undefined) , solubility kinetic at 2 h reported as 65

###

Consider the following molecules; for each one, report its microsomal CLint.
- assay.text: Intrinsic clearance in human liver microsomes assessed per mg protein in presence of NADPH by LC-MS/MS analysis
- Assay type: ADME, microsome
- measurement.conditions: read-out: CLH

Below, each entry is followed by its recorded microsomal CLint result.
{"molecule": "Cc1ccc(-c2ccc(C(=O)NC(CN)c3ncc(CO)s3)[nH]2)cc1F (stereo in doubt)", "microsomal CLint": "< 10 µL/min/mg"}
{"molecule": "NCC(NC(=O)c1ccc(-c2cc(F)c(Cl)c(F)c2)[nH]1)c1ncc(CO)s1 (stereo in doubt)", "microsomal CLint": "< 10 µL/min/mg"}

Entry Cc1nc(C(NC(=O)c2ccc(-c3ccc(Cl)cc3)[nH]2)C2CCCCN2)sc1CO (stereo not drawn) , microsomal CLint reported as < 10 µL/min/mg

###

- assay.text: Cytotoxicity against human MT2 cells incubated for 4 days by XTT assay
- Assay type: cell-based
- measurement.conditions: MT2 cells
Rule: CC50 at 96 h below 30 µM gives 1. Equal to or above 30 µM gives 0.

{"compound": "Cc1nc(C(CCN)NC(=O)c2ccc(-c3ccc(F)c(Cl)c3)[nH]2)sc1CO (stereo in doubt; 62A)", "class.assignment": 1}
{"compound": "Cc1cc(-c2ccc(C(=O)NC(CCN)c3nc(C)c(CO)s3)[nH]2)ccc1F (stereo in doubt; 63A)", "class.assignment": 0}
{"compound": "CNCC(NC(=O)c1ccc(-c2cc(F)c(Cl)c(F)c2)[nH]1)c1ncc(CO)s1 (stereo in doubt; 88A)", "class.assignment": 1}

Lab note: CC50 at 96 h threshold 30 µM. Does this compound come in strictly under it? Cc1nc(C(CN(C)C)NC(=O)c2ccc(-c3ccc(Cl)cc3)[nH]2)sc1CO (stereo unspecified)
0

Lab note: CC50 at 96 h threshold 30 µM. Does this compound come in strictly under it? CNCC(NC(=O)c1ccc(-c2ccc(C)c(F)c2)[nH]1)c1nc(C)c(CO)s1 (stereo in doubt; 43A)
0

###

- assay.text: Cytotoxicity against human MT2 cells incubated for 4 days by XTT assay
- Type: cell-based
- measurement.conditions: MT2 cells
assay.metric: CC50 at 96 h (µM)
One number for each entry, in µM.

{"molecule": "Cc1nc(C(CN)NC(=O)c2ccc(-c3ccc(F)c(F)c3)[nH]2)sc1CO (stereo in doubt; 25A)", "value.unit": "µM", "CC50 at 96 h": 61.2}
{"molecule": "Cc1cc(-c2ccc(Cl)cc2)[nH]c1C(=O)NC(CN)c1nc(C)c(CO)s1 (stereo in doubt; 27A)", "value.unit": "µM", "CC50 at 96 h": 20.2}
{"molecule": "Cc1cc(-c2ccc(C(=O)NC(CCN(C)C)c3nc(C)c(CO)s3)[nH]2)ccc1F (stereo in doubt; 69A)", "value.unit": "µM", "CC50 at 96 h": 25.1}
{"molecule": "CNCC(NC(=O)c1ccc(-c2ccc(Cl)c(F)c2)[nH]1)c1ncc(CO)s1 (stereo in doubt; 86A)", "value.unit": "µM", "CC50 at 96 h": 18.4}
{"molecule": "NCC(NC(=O)c1ccc(-c2ccc(Cl)c(F)c2)[nH]1)c1ncc(CO)s1 (stereo in doubt; 82A)", "value.unit": "µM", "CC50 at 96 h": 32}

Lab note: each molecule below needs its CC50 at 96 h filled in.
1. NCC(NC(=O)c1ccc(-c2ccc(Cl)cc2)[nH]1)c1ncc(CO)s1 (stereo in doubt; 81A)
2. CNCCC(NC(=O)c1ccc(-c2ccc(F)c(Cl)c2)[nH]1)c1nc(C)c(CO)s1 (stereo in doubt; 65A)
3. CNCCC(NC(=O)c1ccc(-c2ccc(F)c(C)c2)[nH]1)c1nc(C)c(CO)s1 (stereo in doubt; 66A)

35.6
22.6
25.9

Entry Cc1nc(C(CN)NC(=O)c2ccc(-c3ccc(Cl)cc3)n2C)sc1CO (stereo in doubt; 26A) , CC50 at 96 h reported as 26.6

###

Consider the following compounds; for each one, report its Papp A→B at 10 µM.
- assay.text: Apparent permeability from apical to basolateral side in human Caco2 cells at 10 uM at pH 7.4 by LC-MS/MS analysis
- Type: ADME, cell-based
- measurement.conditions: Caco-2, pH 7.4

Below, each entry is followed by its recorded Papp A→B at 10 µM result.
{"compound": "NCC(NC(=O)c1ccc(-c2cc(F)c(Cl)c(F)c2)[nH]1)c1ncc(CO)s1 (stereo in doubt)", "test.result": "1.17 ×10⁻⁶ cm/s"}
{"compound": "Cc1ccc(-c2ccc(C(=O)NC(CN)c3ncc(CO)s3)[nH]2)cc1F (stereo in doubt)", "test.result": "2.56 ×10⁻⁶ cm/s"}
{"compound": "Cc1nc(C(NC(=O)c2ccc(-c3ccc(Cl)cc3)[nH]2)C2CCCCN2)sc1CO (centres undefined)", "test.result": "2.31 ×10⁻⁶ cm/s"}

Entry COc1cnc(-n2cnc(C)n2)c2[nH]cc(C(=O)C(=O)N3CCN(C(=O)c4ccccc4)CC3)c12 , Papp A→B at 10 µM reported as 7.62 ×10⁻⁶ cm/s
